System: OVCAR-5 ovarian
Test: NCI tumour cell line growth inhibition, 48 h
Below is a list of entries, each paired with its recorded TGI value.

>  <COMPOUND>
CC(C)=CC(=O)c1[nH]c2ccccc2c1CC(=O)NCCc1cnc[nH]1

>  <RELATIONAL OPERATOR>
>

>  <TGI, µM>
100

$$$$
>  <COMPOUND>
Cc1n[nH]c(=O)c2c3c([nH]c12)-c1ccccc1C3

>  <RELATIONAL OPERATOR>
>

>  <TGI, µM>
100

$$$$
>  <COMPOUND>
O=C1N[C@@H]([C@H]2CC[C@H](Cl)CN2)C(=O)N[C@H]1[C@H]1CC[C@H](Cl)CN1

>  <RELATIONAL OPERATOR>
=

>  <TGI, µM>
9.05

$$$$
>  <COMPOUND>
O=C(NOCCO)c1ccc2cncn2c1Nc1ccc(I)cc1F

>  <RELATIONAL OPERATOR>
>

>  <TGI, µM>
100

$$$$
>  <COMPOUND>
CCCCCCCC(=O)NC(C)(C)C(=O)NCC(=O)NC(CC(C)C)C(=O)NC(C)(C)C(=O)NCC(=O)NCC(=O)NC(CC(C)C)C(=O)NC(C)(C)C(=O)NCC(=O)NC(C(=O)NC(CO)CC(C)C)C(C)CC (configuration not stated)

>  <RELATIONAL OPERATOR>
=

>  <TGI, µM>
6.94

$$$$
>  <COMPOUND>
COc1oc(C2C/C(=C/C(C)=C/C(C)=C/C(C)=C/c3ccc([N+](=O)[O-])cc3)CO2)c(C)c(=O)c1C (configuration not stated)

>  <RELATIONAL OPERATOR>
>

>  <TGI, µM>
100

$$$$
>  <COMPOUND>
Clc1ccc(Cc2nc3cc(Cl)c(Cl)cc3n2CC2CCCN3CCCCC23)cc1 (configuration not stated)

>  <RELATIONAL OPERATOR>
=

>  <TGI, µM>
26

$$$$

----------
Below is a list of entries, each paired with its recorded TGI value.
Test system: HOP-62 NSCLC
Test: NCI tumour cell line growth inhibition, 48 h

>  <MOLECULE>
C=CCSC1=N/C(=C\c2ccc(C)cc2)C(=O)N1CC=C

>  <TGI>
> 100 µM

$$$$
>  <MOLECULE>
COc1cccc(NC(=O)/C(CS(=O)(=O)CCC(C(C)=O)C(C)=O)=N\NC(C)(C)C)c1

>  <TGI>
> 100 µM

$$$$
>  <MOLECULE>
Nc1nc(SCC#CCCl)c2[nH]cnc2n1

>  <TGI>
24.3 µM

$$$$
>  <MOLECULE>
CC1CCc2c(C(=O)Nc3ncc(Cc4cccc([N+](=O)[O-])c4)s3)csc2C1 (stereo not drawn)

>  <TGI>
> 100 µM

$$$$
>  <MOLECULE>
O=C(/C=C/c1ccco1)Nc1ncc(Cc2cc(Cl)ccc2Cl)s1

>  <TGI>
> 76.5 µM

$$$$
>  <MOLECULE>
O=C(O)c1ccccc1Sc1ccc(C=C2NC(=S)N(c3ccccc3)C2=O)s1

>  <TGI>
> 100 µM

$$$$
>  <MOLECULE>
O=C1c2ccccc2CC12Cc1ccc3c(c1C2=O)CCCC3 (stereo not drawn)

>  <TGI>
> 100 µM

$$$$
>  <MOLECULE>
CCOC(=O)C(Oc1ccc(OC)c2c1C(=O)CCC2)c1ccccc1 (stereo not drawn)

>  <TGI>
> 100 µM

$$$$
>  <MOLECULE>
COc1ccc(Cl)cc1NC(=O)O/N=C(\Cl)C(C)C

>  <TGI>
35.2 µM

$$$$
>  <MOLECULE>
Cc1ccccc1NC(=O)C(=O)C(C(=O)c1ccccc1F)C1OC(=O)c2ccccc21 (stereo not drawn)

>  <TGI>
44.4 µM

$$$$
>  <MOLECULE>
Clc1ccc(Cc2nc3cc4ccccc4cc3[nH]2)cc1Cl

>  <TGI>
82.9 µM

$$$$
>  <MOLECULE>
NS(=O)(=O)c1ccc(Nc2c3ccccc3nc3c(C(=O)NC(CO)(CO)CO)cccc23)cc1

>  <TGI>
0.433 µM

$$$$
>  <MOLECULE>
CC(C)C1OC(=O)C(Cc2ccccc2)N(C)C(=O)C(C(C)C)OC(=O)C(Cc2ccccc2)N(C)C(=O)C(C(C)C)OC(=O)C(Cc2ccccc2)N(C)C1=O (stereo not drawn)

>  <TGI>
2.19 µM

$$$$
>  <MOLECULE>
COc1cc(/C=N\Nc2ccccc2)ccc1OC(=O)c1ccccc1

>  <TGI>
> 64.7 µM

$$$$
>  <MOLECULE>
COC1=CC(=O)C2(C=C1OC)OC[C@H]1Oc3c(ccc4c3C=CC(C)(C)O4)C(=O)[C@H]12 (stereo partly drawn)

>  <TGI>
> 100 µM

$$$$
>  <MOLECULE>
N#Cc1c(N)oc2cc3c(C#N)c(N)oc3cc12

>  <TGI>
> 100 µM

$$$$
>  <MOLECULE>
CC[C@H](C)[C@H](NC(=O)CN(C)C)C(=O)N(C)[C@H](C[C@@H](OC(C)=O)c1nc(C(=O)NC23C4C5C2C2C3C4C52C(=O)OC)cs1)C(C)C (stereo partly drawn)

>  <TGI>
> 33.2 µM

$$$$
>  <MOLECULE>
CO[C@H]1C[C@H](O[C@H]2CC[C@@]3(C)[C@H](CC[C@@H]4[C@@H]3CC[C@]3(C)[C@@H](C5=CC(=O)OC5)CC[C@]43O)C2)O[C@H](C)[C@H]1O

>  <TGI>
0.0202 µM

$$$$
>  <MOLECULE>
C=CCN(C(C)=O)c1cc(OCc2ccccc2)c2c(c1)c(C)cn2S(=O)(=O)c1ccccc1

>  <TGI>
> 100 µM

$$$$
>  <MOLECULE>
NN=C1/C(=C\c2ccccc2)CCC/C1=C/c1ccccc1

>  <TGI>
> 100 µM

$$$$
>  <MOLECULE>
COc1ccccc1NC(=O)c1sc2ncn(CCOc3ccccc3)c(=O)c2c1C

>  <TGI>
> 50 µM

$$$$
>  <MOLECULE>
CC(=O)OC1CCC2(C)C(CCC3C2CCC2(C)C(c4ccc(=O)oc4)C(OC(C)=O)CC32O)C1 (stereo not drawn)

>  <TGI>
0.0331 µM

$$$$
>  <MOLECULE>
Cc1ccc2nc(CN(CCN(Cc3nc4ccc(C)cc4[nH]3)Cc3nc4ccc(C)cc4[nH]3)Cc3nc4ccc(C)cc4[nH]3)[nH]c2c1

>  <TGI>
3.24 µM

$$$$
>  <MOLECULE>
CCOC(=O)/C(C(=O)c1ccc[nH]1)=C1/CCCN1C

>  <TGI>
> 100 µM

$$$$
>  <MOLECULE>
O=C1c2ccc3c4c(ccc(c24)C(=O)N1CCCCO)C(=O)N(CCCCO)C3=O

>  <TGI>
12.7 µM

$$$$
>  <MOLECULE>
CC(C)(c1ccc(C=O)o1)c1ccc(C(C)(C)c2ccc(C=O)o2)o1

>  <TGI>
> 100 µM

$$$$
>  <MOLECULE>
CC(NC(CC12CC3CC(CC(C3)C1)C2)C(N)=O)c1ccccc1 (stereo not drawn)

>  <TGI>
> 100 µM

$$$$
>  <MOLECULE>
O=C(O)CN(CCN(CC(=O)O)CC(=O)O)CC(=O)O.[Cu+2].[Na+]

>  <TGI>
79.5 µM

$$$$
>  <MOLECULE>
C(/C=C(\Nc1ccccc1)c1ccc2ccccc2c1)=Nc1ccccc1

>  <TGI>
7.05 µM

$$$$
>  <MOLECULE>
CC(=O)O[C@H]1CSC[C@@H](OC(C)=O)C1[N+](=O)[O-] (stereo partly drawn)

>  <TGI>
> 100 µM

$$$$
>  <MOLECULE>
O=[N+]([O-])c1ccc(CSC2=C(c3ccc(Cl)cc3)S/C(=C3\SC(SCc4ccc([N+](=O)[O-])cc4)=C(c4ccc(Cl)cc4)S3)S2)cc1

>  <TGI>
> 100 µM

$$$$
>  <MOLECULE>
CCNC(=O)O/N=C1\CCC2[C@@H]3CC=C4C[C@@H](OC(=O)NCC)CC[C@]4(C)C3CC[C@]12C (stereo partly drawn)

>  <TGI>
> 100 µM

$$$$
>  <MOLECULE>
COc1ccc2nc(-c3ccc(N)cc3)sc2c1

>  <TGI>
> 100 µM

$$$$
>  <MOLECULE>
C=C1C(=O)C23C(O)CC4C(C)(C)CCC(O)C4(C)C2CC(OC(C)=O)C1[C@H]3O (stereo partly drawn)

>  <TGI>
28.2 µM

$$$$
>  <MOLECULE>
CC1(C)OCC(/C=C\C(O)CC2(C)OCCO2)CO1 (stereo not drawn)

>  <TGI>
> 100 µM

$$$$
>  <MOLECULE>
COc1ccc2cc(CNCCCCCCNC(=O)Nc3cccc4ccccc34)ccc2c1

>  <TGI>
> 100 µM

$$$$
>  <MOLECULE>
COc1cc(O)c(C(=O)C2Cc3ccccc32)c(OC)c1 (stereo not drawn)

>  <TGI>
> 100 µM

$$$$
>  <MOLECULE>
NP1(Oc2ccc(F)cc2)=NP(N)(Oc2ccc(F)cc2)=NP(Oc2ccc(F)cc2)(Oc2ccc(F)cc2)=N1 (stereo not drawn)

>  <TGI>
21.5 µM

$$$$
